- Test system: soluble epoxide hydrolase (sEH)
- method-notes: Fluorescent assay for soluble epoxide hydrolase (CMNPC substrate), percent inhibition at the recited concentration
- Assay type: biochemical
- assay-context: Inhibition Conc. 2000 nM
Could you label it YES if measured % inh. is 90% or higher, and NO otherwise?

Some entries whose results are on file:
1) COc1ccc(NC(=O)NC2CCN(C(=O)C(C)(C)C)CC2)cn1 ... YES
2) COc1ccc(NC(=O)NC2CCN(C(C)=O)CC2)cn1 ... NO
3) CN(C)c1ccc(NC(=O)NC2CCN(C(=O)OC(C)(C)C)CC2)cc1 ... YES
4) COC(=O)c1ccc(NC(=O)NC2CCN(C(C)=O)CC2)s1 ... NO
5) CC(=O)N1CCC(NC(=O)Nc2ccccn2)CC1 ... NO
6) CC(=O)N1CCC(NC(=O)Nc2ccc(N(C)C)cc2)CC1 ... NO

Is % inh. for "CC(=O)N1CCC(NC(=O)NC2CCN(C(=O)OC(C)(C)C)CC2)CC1" at or above 90%? NO

----------
Kindly supply the reported % inh. values for the records listed here.
- Tested on: soluble epoxide hydrolase (sEH)
- method-notes: Fluorescent assay for soluble epoxide hydrolase (CMNPC substrate), percent inhibition at the recited concentration
- Format: biochemical
- assay-context: Inhibition Conc. 50 nM
Give bare numbers, in %.

Report % inh. for every entry below.
1. O=C(NC1CCN(C(=O)c2ccc(Cl)cc2)CC1)NC12CC3CC(CC(C3)C1)C2 [Compound 7-46]
2. NS(=O)(=O)c1cccc(C(=O)N2CCC(NC(=O)NC34CC5CC(CC(C5)C3)C4)CC2)c1 [Compound 4-4]
3. Cc1cccc(Cl)c1S(=O)(=O)N1CCC(NC(=O)NC23CC4CC(CC(C4)C2)C3)CC1 [Compound 7-35]
4. CC(=O)N1CCC(NC(=O)NCC23CC4CC(CC(C4)C2)C3)CC1 [Compound 1-1]

1: 96; 2: 93; 3: 98; 4: 87

Report % inh. for every entry below.
1. CNS(=O)(=O)c1cccc(C(=O)N2CCC(NC(=O)NC34CC5CC(CC(C5)C3)C4)CC2)c1 [Compound 4-5]
2. NS(=O)(=O)c1ccc(C(=O)N2CCC(NC(=O)NC34CC5CC(CC(C5)C3)C4)CC2)cc1 [Compound 4-3]
3. NS(=O)(=O)c1ccc(C(=O)N2CCC(NC(=O)Nc3ccc(OC(F)(F)F)cc3)CC2)cc1 [Compound 4-2]
4. O=C(NC1CCN(S(=O)(=O)c2ccc(Cl)cc2)CC1)NC12CC3CC(CC(C3)C1)C2 [Compound 7-27]

99
93
98
95

----------
- System: soluble epoxide hydrolase (sEH)
- method-notes: Fluorescent assay for soluble epoxide hydrolase (CMNPC substrate), percent inhibition at the recited concentration
- Format: biochemical
- assay-context: Inhibition Conc. 200 nM
measurement-kind: % inh. (%)
Answers are plain numbers, in %.

Some compounds with recorded % inh.:
1) CC(C)(C)CC(=O)N1CCC(NC(=O)NC23CC4CC(CC(C4)C2)C3)CC1 [Compound 7-72] ... 96
2) O=C(Nc1ccc(OC(F)(F)F)cc1)NC1CCN(C(=O)CCCO)CC1 [Compound 7-71] ... 84
3) CC(C)(C)S(=O)(=O)N1CCC(NC(=O)Nc2ccc(OC(F)(F)F)cc2)CC1 [Compound 7-77] ... 99
4) CC(C)(C)C(=O)N1CCC(NC(=O)Nc2ccc(C#N)cc2)CC1 [Compound 7-81] ... 91
5) O=C(NC1CCN(C(=O)CCCO)CC1)NC12CC3CC(CC(C3)C1)C2 [Compound 7-73] ... 94
6) COC(=O)c1ccc(NC(=O)NC2CCN(C(=O)OC(C)(C)C)CC2)s1 [Compound 6-17] ... 87
7) O=C(NC1CCN(C(=O)CCO)CC1)NC12CC3CC(CC(C3)C1)C2 [Compound 7-59] ... 86
8) O=C(NC1CCN(C(=O)NC23CC4CC(CC(C4)C2)C3)CC1)NC12CC3CC(CC(C3)C1)C2 [Compound 7-56] ... 86
9) CC(=O)N1CCC(NC(=O)NCCC(c2ccccc2)c2ccccc2)CC1 [Compound 1-7] ... 100

Now, please, on to the next compound.
// returns reported % inh. for input O=C(Nc1ccc(OC(F)(F)F)cc1)NC1CCN(S(=O)(=O)CCCO)CC1 [Compound 7-75] 100
